Molecular target: UniProt:Q9UBN7
Sequence (Q9UBN7 whole entry): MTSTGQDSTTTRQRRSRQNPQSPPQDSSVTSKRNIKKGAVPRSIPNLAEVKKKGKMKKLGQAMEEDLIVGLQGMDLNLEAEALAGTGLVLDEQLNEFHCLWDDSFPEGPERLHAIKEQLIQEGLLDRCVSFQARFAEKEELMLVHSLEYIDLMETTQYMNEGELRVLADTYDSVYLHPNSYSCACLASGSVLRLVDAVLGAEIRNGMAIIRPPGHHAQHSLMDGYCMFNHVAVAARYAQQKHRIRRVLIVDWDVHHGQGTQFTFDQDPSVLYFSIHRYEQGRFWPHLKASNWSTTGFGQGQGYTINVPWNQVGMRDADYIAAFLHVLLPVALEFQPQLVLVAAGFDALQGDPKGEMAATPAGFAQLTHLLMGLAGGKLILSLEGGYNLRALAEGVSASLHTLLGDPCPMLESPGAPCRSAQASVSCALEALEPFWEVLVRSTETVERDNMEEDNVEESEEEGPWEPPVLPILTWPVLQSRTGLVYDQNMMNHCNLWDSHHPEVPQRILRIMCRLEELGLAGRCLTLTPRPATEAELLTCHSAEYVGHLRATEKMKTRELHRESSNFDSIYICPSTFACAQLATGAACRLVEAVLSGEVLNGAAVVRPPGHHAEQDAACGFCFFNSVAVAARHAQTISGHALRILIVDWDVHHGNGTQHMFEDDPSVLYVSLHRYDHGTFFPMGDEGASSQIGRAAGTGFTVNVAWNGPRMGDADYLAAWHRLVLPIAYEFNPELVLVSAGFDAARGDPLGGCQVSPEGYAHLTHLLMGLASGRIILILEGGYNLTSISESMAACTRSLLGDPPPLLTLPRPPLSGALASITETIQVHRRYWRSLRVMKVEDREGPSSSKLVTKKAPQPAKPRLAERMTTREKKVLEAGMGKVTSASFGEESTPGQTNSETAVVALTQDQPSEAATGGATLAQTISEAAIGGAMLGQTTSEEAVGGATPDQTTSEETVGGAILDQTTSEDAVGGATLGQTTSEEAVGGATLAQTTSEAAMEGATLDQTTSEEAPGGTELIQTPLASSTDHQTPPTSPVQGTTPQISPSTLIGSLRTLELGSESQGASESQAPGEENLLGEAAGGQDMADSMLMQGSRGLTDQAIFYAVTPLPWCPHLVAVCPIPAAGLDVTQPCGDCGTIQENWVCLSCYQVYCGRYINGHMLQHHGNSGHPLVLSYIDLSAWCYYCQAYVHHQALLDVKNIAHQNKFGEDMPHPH
Assay: In vitro HDAC inhibitory activity assay, recombinant HDAC6 (fluorogenic substrate ZMAL)
Type: biochemical
Set-up: purchased BPS Biosciences
Details: 10 µM; read-out: HDAC6 % inhib. at given conc.
Protocol: The in vitro testing on recombinant HDACs was performed as previously described. Recombinant human HDAC1 and −6 were purchased from BPS Biosciences. The enzyme inhibition was determined by using a reported homogenous fluorescence assay. […] Fluorescence intensity was measured at an excitation wavelength of 390 nm and an emission wavelength of 460 nm in a microtiter plate reader (BMG Polarstar). […]
Use 70% as the dividing line for inhibition at 10 µM, with the line itself on the Satisfied side and lower values as Not satisfied.

Check out these entries, answers already filled in.
O=C(COc1ccc(CNc2cc(C(=O)NO)ccc2Cl)cc1)NCCCOCCOCCOCCCNc1cccc2c1C(=O)N(C1CCC(=O)NC1=O)C2=O (stereo not drawn)	Not satisfied
O=C(COc1ccc(C(=O)Nc2cccc(C(=O)NO)c2)cc1)NCCCOCCOCCOCCCNc1cccc2c1C(=O)N(C1CCC(=O)NC1=O)C2=O (stereo not drawn)	Satisfied
Cc1ncsc1-c1ccc(CNC(=O)[C@@H]2C[C@@H](O)CN2C(=O)[C@@H](NC(=O)CCCCCNC(=O)COc2ccc(CNc3cc(C(=O)NO)ccc3Cl)cc2)C(C)(C)C)cc1	Satisfied

Q: Quick check: does "O=C(COc1ccc(CNc2cc(C(=O)NO)ccc2Cl)cc1)NCCCCCNC(=O)CC12CC3CC(CC(C3)C1)C2" have inhibition at 10 µM greater than or equal to 70%?
Ans: Satisfied

Q: Now consider O=C(COc1ccc(C(=O)Nc2cc(C(=O)NO)ccc2Cl)cc1)NCCCOCCOCCOCCCNc1cccc2c1C(=O)N(C1CCC(=O)NC1=O)C2=O (stereo not drawn) and answer again.
Ans: Satisfied

Q: Now consider O=C(COc1ccc(CNc2cc(C(=O)NO)ccc2Cl)cc1)NCCCCCNc1cccc2c1C(=O)N(C1CCC(=O)NC1=O)C2=O (stereo not drawn) and answer again.
Ans: Satisfied

====

biological target: HDAC1 (Homo sapiens, UniProt Q13547); experiment: In vitro HDAC inhibitory activity assay, recombinant HDAC1 (fluorogenic substrate ZMAL); assay type: biochemical; parameters: purchased BPS Biosciences; conditions: 10 µM; read-out: HDAC1 % inhib. at given conc.
Sequence (Q13547 whole entry): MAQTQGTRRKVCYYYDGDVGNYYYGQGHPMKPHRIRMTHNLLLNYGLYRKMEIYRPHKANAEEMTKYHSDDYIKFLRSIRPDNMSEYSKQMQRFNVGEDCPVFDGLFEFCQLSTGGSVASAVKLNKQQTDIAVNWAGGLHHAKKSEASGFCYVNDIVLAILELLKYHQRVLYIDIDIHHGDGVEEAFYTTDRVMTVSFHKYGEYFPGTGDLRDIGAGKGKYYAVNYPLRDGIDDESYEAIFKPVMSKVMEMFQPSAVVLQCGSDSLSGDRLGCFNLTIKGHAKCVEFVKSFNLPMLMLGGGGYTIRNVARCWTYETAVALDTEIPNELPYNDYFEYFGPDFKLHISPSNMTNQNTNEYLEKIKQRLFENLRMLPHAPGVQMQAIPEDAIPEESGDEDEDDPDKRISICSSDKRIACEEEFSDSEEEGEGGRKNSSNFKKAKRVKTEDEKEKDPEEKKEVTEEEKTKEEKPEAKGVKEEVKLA
assayReadout: inhibition at 10 µM (%)
Respond with the bare value in %.

Q: Please give the measured inhibition at 10 µM for this compound: O=C(COc1ccc(CNc2cc(C(=O)NO)ccc2Cl)cc1)NCCCCCNc1cccc2c1C(=O)N(C1CCC(=O)NC1=O)C2=O (stereo not drawn) [CRBN_1g]
Ans: 69

Q: Now consider COc1ccc(C(=O)NO)cc1NC(=O)c1ccc(NC(=O)CCCCCNC(=O)CC23CC4CC(CC(C4)C2)C3)cc1 [HyT_1m] and answer again.
Ans: 81.9

Q: Now consider Cc1ncsc1-c1ccc(CNC(=O)[C@@H]2C[C@@H](O)CN2C(=O)[C@@H](NC(=O)CCCCCNC(=O)COc2ccc(CNc3cc(C(=O)NO)ccc3Cl)cc2)C(C)(C)C)cc1 [VHL_1l] and answer again.
Ans: 45.5

====

tested on: IMR-32 cells; test: Cell viability / proliferation (trypan blue, viable cell count) in neuroblastoma cells; type: cell-based, human; details: 5 and 10 µM
assayReadout: Effect in cell proliferation assay (viable cell count)

O=C(COc1ccc(CNc2cc(C(=O)NO)ccc2Cl)cc1)NCCCCCNC(=O)CC12CC3CC(CC(C3)C1)C2	strongest effect
COc1ccc(C(=O)NO)cc1NC(=O)c1ccc(NC(=O)CCCCCCC(=O)N[C@H](C(=O)N2C[C@H](O)C[C@H]2C(=O)NCc2ccc(-c3scnc3C)cc2)C(C)(C)C)cc1	less significant
COc1ccc(C(=O)NO)cc1NC(=O)c1ccc(NC(=O)CCCCCNC(=O)CC23CC4CC(CC(C4)C2)C3)cc1	less significant
COc1ccc(C(=O)NO)cc1NC(=O)c1ccc(NC(=O)CCCCCCCNc2cccc3c2C(=O)N(C2CCC(=O)NC2=O)C3=O)cc1 (stereo not shown)	strongest effect

====

IC50 reference
target: HDAC8 (Homo sapiens, UniProt Q9BY41); experiment: In vitro HDAC8 activity assay (Fluor de Lys-HDAC8); type: biochemical; set-up: made in house; settings: Table 2, inhibitors synthesized in this paper (S1)
Sequence (Q9BY41 whole entry): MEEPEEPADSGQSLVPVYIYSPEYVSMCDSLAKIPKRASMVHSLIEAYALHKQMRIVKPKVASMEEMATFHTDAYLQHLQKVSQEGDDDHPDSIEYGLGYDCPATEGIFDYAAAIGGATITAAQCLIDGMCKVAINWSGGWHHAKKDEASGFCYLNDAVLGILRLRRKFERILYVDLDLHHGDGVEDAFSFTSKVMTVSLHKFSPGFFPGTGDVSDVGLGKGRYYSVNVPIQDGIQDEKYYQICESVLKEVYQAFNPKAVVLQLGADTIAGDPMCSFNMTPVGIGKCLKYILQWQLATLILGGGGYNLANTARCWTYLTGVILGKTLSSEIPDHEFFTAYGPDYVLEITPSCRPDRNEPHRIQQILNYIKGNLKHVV
Respond with the bare value in nM.

COc1ccc(CNc2cc(C(=O)NO)ccc2OC)cc1	10

Q: Please give the measured IC50 for this compound: "O=C(COc1ccc(CNc2cc(C(=O)NO)ccc2Cl)cc1)OCc1ccccc1"
Ans: 410

====

target: HDAC1 (Homo sapiens); experiment: In vitro HDAC inhibitory activity assay, recombinant HDAC1 (fluorogenic substrate ZMAL); type: biochemical; parameters: purchased BPS Biosciences; conditions: Table 1, PROTACs; read-out: HDAC1 IC50
assayReadout: pIC50
Scale note: pIC50 = -log10(concentration in M).

Q: Please give the measured pIC50 for this compound: O=C1CCC(N2C(=O)c3cccc(NC(=O)CCCCCn4cc(COc5ccc(CNc6cc(C(=O)NO)ccc6Cl)cc5)nn4)c3C2=O)C(=O)N1 (centres unmarked)
Ans: 4.97

====

target: HDAC8 (Homo sapiens, UniProt Q9BY41); assay: HDAC8 degradation in SK-N-BE(2)-C neuroblastoma cells (Western blot); assay type: cell-based; parameters: endogenous in cells; host or cells: SK-N-BE(2)-C; conditions: SK-N-BE(2)-C cells, up to 10 µM, Western blot
assayReadout: HDAC8 degradation

O=C(COc1ccc(CNc2cc(C(=O)NO)ccc2Cl)cc1)NCCCCCNC(=O)CC12CC3CC(CC(C3)C1)C2	failed to degrade HDAC8
Cc1ccc(C(=O)NO)cc1NCc1ccc(OCc2cn(CCCCCC(=O)Nc3cccc4c3C(=O)N(C3CCC(=O)NC3=O)C4=O)nn2)cc1 (stereo not drawn)	failed to degrade HDAC8
COc1ccc(C(=O)NO)cc1NC(=O)c1ccc(NC(=O)CCCCCNC(=O)CC23CC4CC(CC(C4)C2)C3)cc1	failed to degrade HDAC8
